- System: mevalonate kinase [Streptococcus pneumoniae D39]
- assayExplanation: S. pneumoniae MK inhibitors, primary screen, biochemical, PK/LDH-coupled NADH absorbance (AID 555)
- runParameters: purified MK, PK/LDH-coupled NADH absorbance 340 nm; at 10 µM; stronger effect = higher value
In all, about 65,000 compounds went through this assay and about 320 (0.49%) were called active. The full list was thinned out, with actives kept by preference.
assayMetric: inhibition (%)
API: value field is a number in %; no unit string.

The cases that follow already have their inhibition on record.
CC(=NCC1CCCO1)c1c(O)n(-c2ccccc2)c(=O)[nH]c1=O (stereo not given) ... 4
COc1ccccc1CN1CCN(C(=O)Cc2ccccc2)CC1 ... 53
CN1CCN(Cc2ccccc2C(F)(F)F)CC1 ... 6

Q. Please provide the recorded inhibition for CCOC(=O)c1c(-c2ccccc2)oc2ccc(OC(=O)N(C)C)cc12 , tested on mevalonate kinase [Streptococcus pneumoniae D39].
A. 0

Q. Please provide the recorded inhibition for Fc1cccc(F)c1CN1CCN(Cc2c(F)cccc2F)CC1 , tested on mevalonate kinase [Streptococcus pneumoniae D39].
A. 2
